- Test Target: T1, human VEGFA165 (human, UniProt P15692-4 27-191)
- T1 construct: Bought protein from two suppliers, treated as one molecule; the supplier is named under assay; also called antigen VEGFA
- T1 sequence (P15692 other isoform, or with tags, fused parts or gaps limits assumed): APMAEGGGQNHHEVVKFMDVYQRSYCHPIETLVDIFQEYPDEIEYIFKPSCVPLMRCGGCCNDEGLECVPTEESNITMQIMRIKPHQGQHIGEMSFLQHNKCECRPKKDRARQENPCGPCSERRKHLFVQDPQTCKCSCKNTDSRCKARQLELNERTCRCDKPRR
- Protocol Summary: ELISA, coated human VEGFA165, anti-His detection
Overview of reported EC50 across a group of binders:
Measured Property: EC50 (nM)

{"Binder": "2V1-EAAAK-Rigid (VHH, Tandem bivalent nanobody) QLQLVESGGGSVQPGGSLRLSCEVSGRTFSSYTMGWFRQAPGKEREFVVAISKGGYKYDSVSLEARFTISKDNTKNTVYLQMNSLKPEDTAVYYCAATRAYGSSRLRLADTYEYWGQGTQVTVSSLAEAAAKEAAAKEAAAKEAAAKEAAAKAAAQLQLVESGGGSVQPGGSLRLSCEVSGRTFSSYTMGWFRQAPGKEREFVVAISKGGYKYDSVSLEARFTISKDNTKNTVYLQMNSLKPEDTAVYYCAATRAYGSSRLRLADTYEYWGQGTQVTVSS", "Measured Property": "EC50", "Unit Name": "nM", "Value": 0.22}
{"Binder": "2V15-9S (VHH, Tandem bivalent nanobody) QLQLVESGGGSVQPGGSLRLSCEVSGRTFASYTMGWFRQAPGKEREFVVAISKGGYKYDSVSLEARFTISKDNTKNTVYLQMNSLKPEDTAVYYCAGTRAYGSSRLRLAETYEYWGQGTQVTVSSSSSSSSSSSQLQLVESGGGSVQPGGSLRLSCEVSGRTFASYTMGWFRQAPGKEREFVVAISKGGYKYDSVSLEARFTISKDNTKNTVYLQMNSLKPEDTAVYYCAGTRAYGSSRLRLAETYEYWGQGTQVTVSS", "Measured Property": "EC50", "Unit Name": "nM", "Value": 0.21}
{"Binder": "2V15-39GS (VHH, Tandem bivalent nanobody) QLQLVESGGGSVQPGGSLRLSCEVSGRTFASYTMGWFRQAPGKEREFVVAISKGGYKYDSVSLEARFTISKDNTKNTVYLQMNSLKPEDTAVYYCAGTRAYGSSRLRLAETYEYWGQGTQVTVSSGGGGSGGGSGGGGSGGGGSGGGGSGGGGSGGGGSGGGGSQLQLVESGGGSVQPGGSLRLSCEVSGRTFASYTMGWFRQAPGKEREFVVAISKGGYKYDSVSLEARFTISKDNTKNTVYLQMNSLKPEDTAVYYCAGTRAYGSSRLRLAETYEYWGQGTQVTVSS", "Measured Property": "EC50", "Unit Name": "nM", "Value": 0.38}
{"Binder": "2V15-20GS (VHH, Tandem bivalent nanobody) QLQLVESGGGSVQPGGSLRLSCEVSGRTFASYTMGWFRQAPGKEREFVVAISKGGYKYDSVSLEARFTISKDNTKNTVYLQMNSLKPEDTAVYYCAGTRAYGSSRLRLAETYEYWGQGTQVTVSSGGGGSGGGSGGGSGGGSGGSQLQLVESGGGSVQPGGSLRLSCEVSGRTFASYTMGWFRQAPGKEREFVVAISKGGYKYDSVSLEARFTISKDNTKNTVYLQMNSLKPEDTAVYYCAGTRAYGSSRLRLAETYEYWGQGTQVTVSS", "Measured Property": "EC50", "Unit Name": "nM", "Value": 0.28}
{"Binder": "2V15-25GS (VHH, Tandem bivalent nanobody) QLQLVESGGGSVQPGGSLRLSCEVSGRTFASYTMGWFRQAPGKEREFVVAISKGGYKYDSVSLEARFTISKDNTKNTVYLQMNSLKPEDTAVYYCAGTRAYGSSRLRLAETYEYWGQGTQVTVSSGGGGSGGGSGGGSGGGSGGGSGGGSQLQLVESGGGSVQPGGSLRLSCEVSGRTFASYTMGWFRQAPGKEREFVVAISKGGYKYDSVSLEARFTISKDNTKNTVYLQMNSLKPEDTAVYYCAGTRAYGSSRLRLAETYEYWGQGTQVTVSS", "Measured Property": "EC50", "Unit Name": "nM", "Value": 0.24}
